# subjectOfTest: purified rhesus CD45 ectodomain (rhesus macaque)
# Sequence (chain, as listed by the source limits assumed, form in doubt): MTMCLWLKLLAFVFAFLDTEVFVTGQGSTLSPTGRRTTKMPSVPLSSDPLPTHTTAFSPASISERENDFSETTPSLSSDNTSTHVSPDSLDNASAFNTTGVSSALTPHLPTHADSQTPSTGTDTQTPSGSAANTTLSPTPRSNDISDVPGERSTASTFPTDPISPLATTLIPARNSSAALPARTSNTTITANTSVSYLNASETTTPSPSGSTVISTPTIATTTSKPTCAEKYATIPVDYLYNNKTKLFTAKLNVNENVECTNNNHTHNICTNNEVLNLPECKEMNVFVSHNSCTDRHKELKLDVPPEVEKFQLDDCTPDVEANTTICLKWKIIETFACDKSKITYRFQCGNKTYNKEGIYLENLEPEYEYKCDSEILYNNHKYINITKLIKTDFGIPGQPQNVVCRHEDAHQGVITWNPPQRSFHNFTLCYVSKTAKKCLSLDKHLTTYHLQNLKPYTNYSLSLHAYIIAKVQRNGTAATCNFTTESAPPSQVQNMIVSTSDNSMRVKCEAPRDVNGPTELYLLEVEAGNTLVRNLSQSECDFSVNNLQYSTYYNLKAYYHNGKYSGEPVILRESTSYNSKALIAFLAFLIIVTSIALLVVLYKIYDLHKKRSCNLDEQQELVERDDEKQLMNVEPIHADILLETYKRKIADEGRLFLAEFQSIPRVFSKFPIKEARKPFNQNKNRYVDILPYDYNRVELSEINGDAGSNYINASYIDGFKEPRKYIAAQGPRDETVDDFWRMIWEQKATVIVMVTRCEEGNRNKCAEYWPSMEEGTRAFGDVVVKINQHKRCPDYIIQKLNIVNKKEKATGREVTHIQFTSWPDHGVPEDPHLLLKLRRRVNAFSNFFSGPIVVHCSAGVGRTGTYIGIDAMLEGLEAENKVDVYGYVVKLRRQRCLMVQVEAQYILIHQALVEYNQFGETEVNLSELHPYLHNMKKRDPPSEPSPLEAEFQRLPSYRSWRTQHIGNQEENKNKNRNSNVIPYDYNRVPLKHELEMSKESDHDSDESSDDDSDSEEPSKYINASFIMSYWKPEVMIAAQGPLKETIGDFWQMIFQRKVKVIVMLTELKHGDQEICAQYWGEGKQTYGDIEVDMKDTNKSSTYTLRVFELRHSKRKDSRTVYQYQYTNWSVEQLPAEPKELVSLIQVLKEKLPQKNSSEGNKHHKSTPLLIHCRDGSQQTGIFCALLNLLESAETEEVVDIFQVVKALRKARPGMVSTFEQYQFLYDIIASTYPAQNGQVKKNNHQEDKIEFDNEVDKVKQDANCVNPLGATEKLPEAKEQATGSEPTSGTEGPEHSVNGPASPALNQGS
# methodDescription: BLI (Octet Red96), IgG on anti-human Fc sensor, 50 nM CD45 ectodomain, 1:1 fit
propertyMeasured: Kd

1. Antibody 4 (Ab4) (antibody, V domains shown) VH: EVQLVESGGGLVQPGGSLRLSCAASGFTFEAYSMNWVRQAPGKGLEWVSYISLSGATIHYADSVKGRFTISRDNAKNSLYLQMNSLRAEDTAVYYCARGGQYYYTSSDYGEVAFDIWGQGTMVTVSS VL: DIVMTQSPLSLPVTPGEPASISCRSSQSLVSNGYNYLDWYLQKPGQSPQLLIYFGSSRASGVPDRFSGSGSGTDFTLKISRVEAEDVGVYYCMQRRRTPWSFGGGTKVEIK    0.867 nM
2. Antibody 6 (Ab6) (antibody, V domains shown) VH: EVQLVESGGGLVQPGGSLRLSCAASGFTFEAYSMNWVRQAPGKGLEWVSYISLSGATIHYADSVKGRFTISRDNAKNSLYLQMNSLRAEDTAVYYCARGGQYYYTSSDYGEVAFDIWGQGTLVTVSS VL: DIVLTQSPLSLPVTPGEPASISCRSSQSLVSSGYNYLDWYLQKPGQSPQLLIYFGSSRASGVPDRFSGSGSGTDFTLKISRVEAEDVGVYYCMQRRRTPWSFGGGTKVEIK    1.44 nM
3. Antibody 5 (Ab5) (antibody, V domains shown) VH: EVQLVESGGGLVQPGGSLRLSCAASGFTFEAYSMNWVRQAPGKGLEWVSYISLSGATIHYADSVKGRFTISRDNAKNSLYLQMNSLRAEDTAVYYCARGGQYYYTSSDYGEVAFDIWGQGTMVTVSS VL: DIVMTQSPLSLPVTPGEPASISCRSSQSLVSSGYNYLDWYLQKPGQSPQLLIYFGSSRASGVPDRFSGSGSGTDFTLKISRVEAEDVGVYYCMQRRRTPWSFGGGTKVEIK    1.71 nM
4. Antibody 7 (Ab7) (antibody, V domains shown) VH: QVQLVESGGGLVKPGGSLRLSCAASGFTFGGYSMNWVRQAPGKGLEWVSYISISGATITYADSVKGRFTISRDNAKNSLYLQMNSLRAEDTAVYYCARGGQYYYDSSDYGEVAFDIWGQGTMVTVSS VL: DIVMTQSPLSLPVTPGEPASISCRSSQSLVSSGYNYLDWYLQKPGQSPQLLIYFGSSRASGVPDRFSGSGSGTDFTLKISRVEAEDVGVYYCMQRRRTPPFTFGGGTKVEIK    4.39 nM
5. Antibody 2 (Ab2) (antibody, V domains shown) VH: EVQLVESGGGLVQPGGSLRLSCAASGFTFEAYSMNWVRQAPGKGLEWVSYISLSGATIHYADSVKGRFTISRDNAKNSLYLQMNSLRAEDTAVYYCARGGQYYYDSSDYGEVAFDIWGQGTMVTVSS VL: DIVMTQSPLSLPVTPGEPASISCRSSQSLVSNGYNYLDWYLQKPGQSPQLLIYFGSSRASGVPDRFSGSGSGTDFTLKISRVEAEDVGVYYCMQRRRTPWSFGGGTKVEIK    1.42 nM
6. Antibody 3 (Ab3) (antibody, V domains shown) VH: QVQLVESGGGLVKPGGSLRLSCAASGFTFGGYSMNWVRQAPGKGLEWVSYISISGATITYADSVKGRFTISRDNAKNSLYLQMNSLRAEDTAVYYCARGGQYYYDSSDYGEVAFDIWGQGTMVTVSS VL: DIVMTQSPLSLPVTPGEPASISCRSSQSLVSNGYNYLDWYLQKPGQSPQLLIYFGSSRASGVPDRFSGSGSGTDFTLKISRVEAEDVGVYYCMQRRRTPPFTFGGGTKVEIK    1.65 nM

Where do these numbers come from? They come from patent US20220267441A1.
